Molecular target: human GPR119 (Homo sapiens, UniProt Q8TDV5)
Construct: expression vector for human GPR119 cDNA (Acc. No. NP_848566)
Sequence (Q8TDV5 whole entry): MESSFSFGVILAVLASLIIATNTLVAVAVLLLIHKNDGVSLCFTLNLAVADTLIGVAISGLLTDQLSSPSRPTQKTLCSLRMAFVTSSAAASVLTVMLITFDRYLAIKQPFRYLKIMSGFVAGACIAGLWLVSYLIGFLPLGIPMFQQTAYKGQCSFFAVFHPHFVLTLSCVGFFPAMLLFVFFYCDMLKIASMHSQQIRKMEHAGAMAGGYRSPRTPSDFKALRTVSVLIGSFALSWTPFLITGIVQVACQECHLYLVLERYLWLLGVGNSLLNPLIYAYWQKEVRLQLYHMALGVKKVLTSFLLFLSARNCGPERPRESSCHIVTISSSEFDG
Test: AlphaScreen cAMP assay, activation of GPR119 in Min-6/hGPR119 cells
Conditions: MIN6 cells stably transfected with human GPR119; intracellular cAMP; 45 minutes incubation at room temperature
Description: The compounds of formula I according to the invention modulate the activity of the G-protein-coupled receptor GPR119. The effect of the compounds on the activation of GPR119 and on the stimulation of intracellular cAMP concentration is determined using the AlphaScreen cAMP Assay Kit (Cat. No. #6760625R) made by PerkinElmer. MIN6 cells [Miyazaki J et al. Endocrinology. 1990 July; 127(1):126-32] are stably transfected with an expression vector for human GPR119 cDNA (Acc. No. NP_848566). […]
EC50 for assorted compounds

COMPOUND: CC(C)c1nc(N2CCC(C3Cc4cc(C5=CCN(S(C)(=O)=O)CC5)ncc4O3)CC2)no1 (stereo not shown)
EC50, nM: 6
//
COMPOUND: CCCc1nc(N2CCC(C3Cc4cc(C5=CCN(S(C)(=O)=O)CC5)ncc4O3)CC2)no1 (single isomer, unassigned) [Example 44]
EC50, nM: 6
//
COMPOUND: CC(C)c1nc(N2CCC(C3Cc4cc(-c5ccc(S(C)(=O)=O)cc5)ncc4O3)CC2)no1 (stereo not shown)
EC50, nM: 11
//
COMPOUND: CS(=O)(=O)N1CC=C(c2cc3c(cn2)O[C@H](C2CCN(c4ncc(Cl)cn4)CC2)C3)CC1 (single isomer, unassigned)
EC50, nM: 12
//
COMPOUND: CCCc1noc(N2CCC([C@]3(C)Cc4cc(-c5ccc(S(C)(=O)=O)cc5)ncc4O3)CC2)n1 (single isomer, unassigned)
EC50, nM: 15
//
COMPOUND: CC(C)c1nc(N2CCC([C@H]3Cc4cc(C5=CCN(S(C)(=O)=O)CC5)ncc4O3)CC2)no1 (single isomer, unassigned)
EC50, nM: 13
//
COMPOUND: CCc1cnc(N2CCC(C3Cc4cc(-c5ccc(C(=O)N(C)CC#N)cc5)ccc4O3)CC2)nc1 (stereo not shown)
EC50, nM: 16
//
COMPOUND: C[C@@]1(C2CCN(c3ccc(C(F)(F)F)cn3)CC2)Cc2cc(C3=CCN(S(C)(=O)=O)CC3)ncc2O1 (single isomer, unassigned)
EC50, nM: 6
//
COMPOUND: CC(C)(C)c1nc(N2CCC([C@@H]3Cc4cc(C5=CCN(S(C)(=O)=O)CC5)ncc4O3)CC2)no1 (single isomer, unassigned)
EC50, nM: 7
//
COMPOUND: CCc1cnc(N2CCC(C3Cc4cc(-c5ccc(C(=O)N6CCOCC6)cc5)ccc4O3)CC2)nc1 (stereo not shown)
EC50, nM: 11
